# Tested on: T-47D breast
# protocol-details: NCI-60 one-dose screen, 48 h
# condition-description: 10 µM unless noted
The panel holds about 83,000 compounds, 20% with a hit somewhere; the sample as a whole holds those more often. Activity calls are given as the source filed them. Rule for the calls: active = growth percent below 10; inactive = the rest.
Can you answer with just one of these options? label 1 = active, label 0 = inactive

Known results for compounds:
• CC[C@]12C=CCN3CC[C@]4(C(=C(C(=O)OC)C1)Nc1cc5c(cc14)[C@@H]1[C@H](O5)[C@@H](O)[C@@]4(CC)CC(C(=O)OC)=C5Nc6cc(O)ccc6[C@@]56CCN1C46)C32 (some centres not stated) = label 1
• COc1ccccc1/C=C1\Oc2ccc(O)c(O)c2C1=O = label 0
• CN1CCN(CC#CCn2c3c(c4ccccc42)C[C@]2(C)[C@H]4CC=C5[C@@H]6CC(C)(C)CC[C@]6(C(=O)N6CCOCC6)CC[C@@]5(C)[C@]4(C)CC[C@H]2C3(C)C)CC1 = label 0
• CCOC(=O)c1c(NCC(=O)Nc2cccc([N+](=O)[O-])c2)sc(C(C)=O)c1C = label 0
• CCCCSC1=C(Cl)CN(c2ccc(Cl)cc2)C1=O = label 0

Input: Call for entry CCOC(=O)Nc1ccc2c(ccn2C(=O)c2cccc(F)c2)c1 :
Output: label 0

Input: Call for entry CSc1ccc(/C(=N/N=C(N)N)c2ccc(F)cc2)cc1 :
Output: label 0

###

# Tested on: CCRF-CEM leukemia
# protocol-details: NCI-60 one-dose screen, 48 h
# condition-description: 10 µM unless noted
The panel holds about 83,000 compounds, 20% with a hit somewhere; the sample as a whole holds those more often. Calls of active or inactive are those of the source. How the source made its calls: active means growth percent below 10; inactive means the rest.
Can you answer with just one of these options? active, inactive

Known results for compounds:
- COc1ccc(/C=N\NC(=O)c2cnn(CC(O)c3ccccc3)c2N)cc1OCc1ccc(Cl)cc1 (stereo not given): inactive
- Brc1cc(-c2cc(-c3ccc4c(c3)OC=CO4)[nH]n2)cs1: inactive
- N#Cc1c(-c2cccs2)cc(-c2cnccn2)nc1SCC(=O)N/N=C/c1ccc(Cl)cc1: inactive
- NC(N)=NS(=O)(=O)c1ccc(N=Nc2c(N)nn(-c3ccc([N+](=O)[O-])cc3[N+](=O)[O-])c2N)cc1: inactive
- COc1cc(/C=N\NC(=O)c2ccc3nc(-c4ccc(Br)cc4)[nH]c3c2)cc(OC)c1OC: inactive
- CN1CCN(Cc2ccc(/C=N/Nc3ccnc4cc(Cl)ccc34)cc2)CC1: inactive
- COc1ccc2c(c1)c(-c1nn3cc(-c4ccncc4)nc3s1)cn2C: inactive
- O=C1/C(=C/C=C/c2ccco2)SC(=S)N1Cc1ccccc1: inactive

Input: Call for entry COc1ccc([C@@H]2C(=O)N(c3cc(OC)c(OC)c(OC)c3)[C@H]2c2ccc(OC)c(O)c2)cc1 :
Output: inactive

Input: Call for entry CCCCc1nc2c(N)nc3ccccc3c2n1Cc1ccc(OC)cc1 :
Output: inactive

Input: Call for entry O=C(CSc1nc2ccccc2c(=O)n1-c1ccccc1)N/N=C/c1ccc(Oc2ccc(Cl)cc2)cc1 :
Output: inactive

Input: Call for entry N#Cc1c(-c2ccc(Br)cc2)cc(-c2c[nH]c3ccccc23)nc1N :
Output: inactive

Input: Call for entry CN(C)CCNc1ccc2ncc(C#Cc3cncc(C(=O)Nc4ccc(CN5CCN(C)CC5)c(C(F)(F)F)c4)c3)n2n1 :
Output: active

Input: Call for entry COc1ccc(C2c3[nH]c4ccc(Cl)cc4c3CCN2c2oc(CO)nc2C#N)cc1 (stereo not given) :
Output: inactive

Input: Call for entry CC1=C(C)C(=O)C(Nc2ccc(C)cc2)=C(Br)C1=O :
Output: inactive

###

Each entry below carries its recorded growth.
# Tested on: MOLT-4 leukemia
# protocol-details: NCI-60 one-dose screen, 48 h (100 = growth as untreated, 0 = no growth, -100 = all killed)
# condition-description: 10 µM unless noted
This is part of a sample that, as a whole, favours compounds with a hit. Of some 83,000 tested, about 20% had one in any assay.
Give the value, in units of %, as a plain number.

* COc1cc2c3c(cc4c5c(ccc4c3c1OC)OCO5)N(CCN(C)C)C2=O | 3.85
* CN1CCN(c2ccc(C(=O)/C=C/c3cc(F)cc(C(F)(F)F)c3)cc2)CC1 | 46.8

# evaluate next
Input: Lookup: growth / MOLT-4 leukemia / NS(=O)(=O)c1ccc(Nc2nc(N/N=C/c3ccc4c(c3)OCO4)nc(Nc3ccccc3)n2)cc1
Output: 11.2

###

Each entry below carries its recorded growth.
# Test system: MDA-MB-435 melanoma
# protocol-details: NCI-60 one-dose screen, 48 h (100 = growth as untreated, 0 = no growth, -100 = all killed)
# condition-description: 10 µM unless noted
This is part of a sample that, as a whole, favours compounds with a hit. Of some 83,000 tested, about 20% had one in any assay.
Give the value, in units of %, as a plain number.

Would you please look over these solved cases?
* CCc1nnc(NC(=O)c2cc(-c3ccc(Cl)cc3Cl)oc2C)s1 | 90.6
* CC[C@]12C=CCN3CC[C@]4(C(=C(C(=O)OC)C1)Nc1cc5c(cc14)[C@@H]1[C@H](O5)[C@@H](O)[C@@]4(CC)CC(C(=O)OC)=C5Nc6cc(O)ccc6[C@@]56CCN1C46)C32 (some centres not stated) | -38.2
* CN1CCN(Cc2ccc(NC(=O)c3cncc(C#Cc4cnc5ccc(OCC6COC6)nn45)c3)cc2C(F)(F)F)CC1 | -92.3
* Cc1ccc([C@H]2c3[nH]c4ccccc4c3C[C@H]3C(=O)N(CCCCCCC(=O)NO)CC(=O)N23)s1 | 45.2
* COc1ccc(/C=N/NC(=O)c2c(N)nn(C)c2Nc2ccccc2)cc1 | -31

Input: Lookup: growth / MDA-MB-435 melanoma / O=c1c2cc(-c3ccc(F)cc3F)ccc2n(Nc2ccccc2)c(=O)n1-c1cccc(C(F)(F)F)c1
Output: 5.62

Input: Lookup: growth / MDA-MB-435 melanoma / O=C(CSc1nnc(-c2ccc(Cl)cc2)n1-c1ccccc1)Nc1ccc(Cl)cc1
Output: 42.3

Input: Lookup: growth / MDA-MB-435 melanoma / CCCc1[nH]c(-c2cc(N)ccc2Cl)c2c1C(=O)CCCC2
Output: 99.5

###

Each entry below carries its recorded growth.
# Tested on: HCC-2998 colon
# protocol-details: NCI-60 one-dose screen, 48 h (100 = growth as untreated, 0 = no growth, -100 = all killed)
# condition-description: 10 µM unless noted
About 83,000 compounds went through this panel and 20% of them were active in at least one assay; those are over-represented in the sample as a whole.
Give the value, in units of %, as a plain number.

- Cc1ccc(C(=O)CSc2nc3ccccc3c(=O)n2C)cc1: 113
- Cc1ccc([C@H]2c3[nH]c4ccccc4c3C[C@H]3C(=O)N(CCCCCCC(=O)NO)CC(=O)N23)s1: 82.4
- N#Cc1cnc2ccc(-c3cnc4n[nH]nc4c3)cc2c1N1CCc2cc(F)c(Cl)cc21: 22.5
- O=C(CSc1nnc(-c2ccc(Cl)cc2)n1-c1ccccc1)Nc1ccc(Cl)cc1: 70.1

Input: What value of growth has been reported for the following molecule? CCOC(=O)c1c(NC(=O)c2cccc(C(F)(F)F)c2)sc2c1CCC(=O)C2
Output: 87

Input: What value of growth has been reported for the following molecule? Cc1ccc(C)c(NC2=C(Cl)C(=O)c3nc(C)ccc3C2=O)c1
Output: 17.7

Input: What value of growth has been reported for the following molecule? O=C(Nc1cc(C(F)(F)F)cc(C(F)(F)F)c1)Nc1ccc2oc(=O)ccc2c1
Output: 11.2

Input: What value of growth has been reported for the following molecule? O=C(COc1ccc(/C=C2\C(=O)Nc3ccc(Cl)cc32)cc1)Nc1ccc(Cl)cc1
Output: 89

Input: What value of growth has been reported for the following molecule? CC1CCN(CC(=O)Nn2c(COc3ccccc3)nc3ccccc3c2=O)CC1
Output: 89.9

###

# Test system: A549/ATCC NSCLC
# protocol-details: NCI-60 one-dose screen, 48 h (100 = growth as untreated, 0 = no growth, -100 = all killed)
# condition-description: 10 µM unless noted
This is part of a sample that, as a whole, favours compounds with a hit. Of some 83,000 tested, about 20% had one in any assay.
property-label: growth (%)
Give the value, in units of %, as a plain number.

* O=C(CSc1nnc(-c2ccc(Cl)cc2)n1-c1ccccc1)Nc1ccc(Cl)cc1 | 21.5
* CC[C@H](CC[C@@H](C)[C@H]1CC[C@H]2[C@@H]3CC(=O)C4=CC(=O)/C(=C/c5ccc([N+](=O)[O-])cc5)C[C@]4(C)[C@H]3CC[C@]12C)C(C)C | 99
* CN1CCN(CCCCCC(=O)Nc2nc(-c3cccc(NS(=O)(=O)c4cccc5c(N(C)C)cccc45)c3)cs2)CC1 | 70.9

Input: Lookup: growth / A549/ATCC NSCLC / CCCCN1C(=O)/C(=c2\sc3n(c2=O)C2C(NN=3)N(CC)C(=O)N2CC)c2cc(C)ccc21 (centres undefined)
Output: 91.4
